# Test system: HeLa
# experiment.description: Cytotoxicity against human HeLa cells after 48 hrs by XTT assay
# Type: functional, cell-based
measured.metric: EC50 (µM)
State the answer as a number, implicitly in µM.

Recorded EC50, per entry:
CCCN(CCC)S(=O)(=O)c1ccc(NC(=O)c2ccc(C(C)(C)C)cc2)cc1 = 9
C=CCN(CC=C)S(=O)(=O)c1ccc(NC(=O)c2ccc(C(C)(C)C)cc2)cc1 = 12.3

Q: Param item = CC(=O)NS(=O)(=O)c1ccc(NC(=O)c2cc(-c3ccc(Cl)s3)nc3ccccc23)cc1 ; retrieve measured EC50.
Result: 100

Source listed as ChEMBL document CHEMBL1156765.
